assay: chemical genetic growth profiling, strain panel (AID 1159580);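 further: tested at 20 µM; growth read once vehicle control cultures reached saturation at 30 °C; 1 = growth at the plate median or of vehicle wells; lower values mean less growth of the strain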; conditions: S. cerevisiae deletion strains, growth OD, locus YOR144C, strain elg1
Hit rate of the full screen: of about 5,500 compounds, about 2,000 (36%) were called active. Not shown: some 18% with an inconclusive outcome. No stated cut-off is given here; in the data, active means normalized growth mostly below about 0.91 (no sharp cut-off); inconclusive means no clear call, values can overlap the other calls; inactive means mostly above about 0.92. This is one part of the list.
Pick one and only one: True (active), False (inactive)

See these solved cases before continuing.
IN: Could you please tell me the result logged for CCC(C)C(=O)c1c(O)c(C)c2oc3c(C)c(O)c(C(=O)C(C)CC)c(O)c3c2c1O (stereo not given) in this assay?
OUT: False

IN: Could you please tell me the result logged for CN[C@@H]1C(OC2[C@H](O[C@H]3[C@H](O)[C@@H](O)[C@H](N=C(N)N)[C@@H](O)[C@@H]3N=C(N)N)OC(C)[C@]2(O)CO)OC(CO)C(O)C1O (stereo not given in full) in this assay?
OUT: False

---
IN: Could you please tell me the result logged for `CN1CCC[C@@H]1CCO[C@](C)(c1ccccc1)c1ccc(Cl)cc1` in this assay?
OUT: False

IN: Could you please tell me the result logged for CC1OC(O[C@H]2/C=C/C=C/C=C/C=C/C=C/C=C/C=C/[C@H](C)[C@@H](O)[C@@H](C)[C@H](C)OC(=O)CC(O)CC(O)CCC(O)C(O)CC(O)C[C@]3(O)C[C@H](O)C(C(=O)O)C(C2)O3)C(O)[C@H](N)C1O (stereo not given in full) in this assay?
OUT: False

IN: Could you please tell me the result logged for `O=C1CCCCC/C=C/CCCCCCCCO1` in this assay?
OUT: False

IN: Could you please tell me the result logged for `Cc1cc(/C=C/c2ccc3cc(N(C)C)ccc3[n+]2C)c(C)n1-c1ccccc1` in this assay?
OUT: False

IN: Could you please tell me the result logged for `CN(C)C(=O)Oc1ccc[n+](C)c1` in this assay?
OUT: False

IN: Could you please tell me the result logged for CC1[C@H](C)OC(=O)CC(O)CC(O)CC(O)CCC(O)C(O)C[C@]2(O)CC(O)C(C(=O)O)C(CC(OC3O[C@H](C)[C@@H](O)[C@H](N)[C@@H]3O)/C=C/C=C/C=C/C=C/CC/C=C/C=C/[C@H](C)[C@H]1O)O2 (stereo not given in full) in this assay?
OUT: True

IN: Could you please tell me the result logged for NC(=O)NC1NC(=O)NC1=O (stereo not given) in this assay?
OUT: False

IN: Could you please tell me the result logged for CCCCCCCCCCCCCC(=O)OC1C(C)C2(O)C(C=C(CO)CC3(O)C(=O)C(C)=CC32)C2C(C)(C)C12OC(C)=O (stereo not given) in this assay?
OUT: False

IN: Could you please tell me the result logged for CC(=O)O[C@@H]1CC2C(C)(C)[C@H](O)CC[C@]2(C)C2CC[C@@]3(C)[C@H](c4ccoc4)OC(=O)C4OC43[C@@]21C (stereo not given in full) in this assay?
OUT: False

IN: Could you please tell me the result logged for CNc1ccc(C(=O)CC(O)CCC(C)C2OC(=O)CC(O)CC(=O)CC(O)CC(O)CC(O)CC(O)CC3(O)CC(O)C(C(=O)OC)C(CC(OC4OC(C)C(O)C(N)C4O)/C=C/C=C/C=C/C=C/C=C/C=C/C=C/C2C)O3)cc1 (stereo not given) in this assay?
OUT: True

IN: Could you please tell me the result logged for O=c1cccc2n1CC1CC2CN2CCCC[C@@H]12 (stereo not given in full) in this assay?
OUT: False

IN: Could you please tell me the result logged for CC(=O)C1CC[C@H]2C3CC[C@H]4C[C@H](O)CC[C@]4(C)C3CC[C@]12C (stereo not given in full) in this assay?
OUT: False

IN: Could you please tell me the result logged for CCC(=O)OC1[C@@H]2CC3=C4CC(=O)O[C@@H](c5ccoc5)[C@]4(C)CCC3[C@@](C)(C2=O)[C@@H](CC(=O)OC)C1(C)C (stereo not given in full) in this assay?
OUT: False

----------
Below, each entry is listed with its recorded normalized growth.
experiment: chemical genetic growth profiling, strain panel (AID 1159580); settings: S. cerevisiae deletion strains, growth OD, locus YDR001C, strain nth1, active compounds read low
Out of some 5,500 compounds screened, about 2,000 (36%) were called active. About 18% were inconclusive and are not listed. The list shows a part of the results.
Simply state the number, no unit and no words.

IN: Return reported normalized growth; argument: COC(=O)/C(C)=C\CC12OC(C)(C)C3CC(C=C4C(=O)c5c(OC)c6c(c(CC=C(C)C)c5OC431)OC(C)(CCC=C(C)C)C=C6)C2=O (centres undefined)
OUT: 1.02

IN: Return reported normalized growth; argument: COc1cc2c(cc1OC)C1(O)C(=O)c3ccc(O)c(C(=O)O)c3OC1CO2 (centres undefined)
OUT: 0.987

IN: Return reported normalized growth; argument: CC(=O)Oc1c2c(c(CC=C(C)C)c3c1C(=O)C1=C[C@@H]4CC5C(C)(C)OC(C/C=C(\C)C(=O)O)(C4=O)[C@@]15O3)OC(C)(CCC=C(C)C)C=C2 (some centres undefined)
OUT: 0.988

---
IN: Return reported normalized growth; argument: COc1ccc2c(c1)OCC(Cc1ccc(O)c(OC)c1)C2=O (centres undefined)
OUT: 0.967

----------
assay: chemical genetic growth profiling, strain panel (AID 1159580);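 further: tested at 20 µM; growth read once vehicle control cultures reached saturation at 30 °C; 1 = growth at the plate median or of vehicle wells; lower values mean less growth of the strain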; conditions: S. cerevisiae deletion strains, growth OD, locus YLR268W, strain sec22, active compounds read low
Screen size: about 5,500 compounds; about 2,000 (36%) were called active. About 18% were inconclusive and are not listed. Some of the results follow.
ENDPOINT: normalized growth
Simply state the number, no unit and no words.

Known results for compounds:
IN: Return reported normalized growth; argument: `COc1ccc(-c2cc(=O)c3c(OC)cc(OC)cc3o2)cc1`
OUT: 0.95

IN: Return reported normalized growth; argument: Cc1cccc(C)c1NC(=O)C1CCCCN1C (stereo not given)
OUT: 1.02

IN: Return reported normalized growth; argument: COc1ccc(CCC(=O)c2c(O)cc(O[C@@H]3O[C@H](CO)C(O)[C@H](O)C3O[C@@H]3O[C@@H](C)[C@H](O)[C@@H](O)[C@H]3O)cc2O)cc1O (stereo not given in full)
OUT: 0.95

Continue with the compound presented below.
IN: Return reported normalized growth; argument: `O=NN(CCCl)C(=O)NCCCl`
OUT: 0.957

----------
test: chemical genetic growth profiling, strain panel (AID 1159580);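 further: tested at 20 µM; growth read once vehicle control cultures reached saturation at 30 °C; 1 = growth at the plate median or of vehicle wells; lower values mean less growth of the strain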; conditions: S. cerevisiae deletion strains, growth OD, locus YHR200W, strain rpn10, active compounds read low
Screen size: about 5,500 compounds; about 2,000 (36%) were called active. Not shown: some 18% with an inconclusive outcome. This is one part of the list.
Below, each entry is listed with its recorded normalized growth.
Simply state the number, no unit and no words.

IN: Return reported normalized growth; argument: CC1[C@H](C)OC(=O)CC(O)CC(O)CC(O)CCC(O)C(O)C[C@]2(O)CC(O)C(C(=O)O)C(CC(OC3O[C@H](C)[C@@H](O)[C@H](N)[C@@H]3O)/C=C/C=C/C=C/C=C/CC/C=C/C=C/[C@H](C)[C@H]1O)O2 (some centres not stated)
OUT: 0.0755

---
IN: Return reported normalized growth; argument: CC1OC(O[C@H]2/C=C/C=C/C=C/C=C/C=C/C=C/C=C/[C@H](C)[C@@H](O)[C@@H](C)[C@H](C)OC(=O)CC(O)CC(O)CCC(O)C(O)CC(O)C[C@]3(O)C[C@H](O)C(C(=O)O)C(C2)O3)C(O)[C@H](N)C1O (some centres not stated)
OUT: 1.02

----------
assay: chemical genetic growth profiling, strain panel (AID 1159580);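 further: tested at 20 µM; growth read once vehicle control cultures reached saturation at 30 °C; 1 = growth at the plate median or of vehicle wells; lower values mean less growth of the strain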; settings: S. cerevisiae deletion strains, growth OD, locus YCL069W, strain vba3, active compounds read low
Screen size: about 5,500 compounds; about 2,000 (36%) were called active. Another 18% or so got no clear call; they are omitted. This is one part of the list.
Below, each entry is listed with its recorded normalized growth.
Simply state the number, no unit and no words.

Known results for compounds:
IN: Return reported normalized growth; argument: CC(=O)O[C@@H]1CC2C(C)(C)C(=O)C3OC3[C@]2(C)C2CC[C@@]3(C)[C@H](c4ccoc4)OC(=O)C4OC43[C@@]21C (some centres undefined)
OUT: 0.982

IN: Return reported normalized growth; argument: `Cc1onc(-c2ccccc2)c1-c1ccc(S(N)(=O)=O)cc1`
OUT: 0.995

IN: Return reported normalized growth; argument: CC(=O)O[C@H]1C[C@@H](OC(C)=O)C(C)(C)C2C[C@@H](O)[C@]3(C)C(CC[C@@]4(C)[C@H](c5ccoc5)OC(=O)[C@H]5O[C@]543)[C@]21C (some centres undefined)
OUT: 0.969

---
IN: Return reported normalized growth; argument: CC12CCCCC1(Br)[N+](=O)N2[O-] (centres undefined)
OUT: 0.986

IN: Return reported normalized growth; argument: COc1cc2c(cc1OC)C1(O)C(=O)c3ccc(O)c(C(=O)O)c3OC1CO2 (centres undefined)
OUT: 1

IN: Return reported normalized growth; argument: `NC1(C(=O)O)CC1`
OUT: 1.02

IN: Return reported normalized growth; argument: COC[C@]12CN(C=O)C3[C@@H]4[C@H](OC)C1[C@]3(C1CC3(O)C(OC)C(O)C4(OC(C)=O)C1C3OC(=O)c1ccccc1)[C@@H](OC)C[C@H]2O (some centres undefined)
OUT: 1.01

IN: Return reported normalized growth; argument: `NC1(C(=O)O)CCCC1`
OUT: 1.02

IN: Return reported normalized growth; argument: COc1ccc2c(c1)OCC(Cc1ccc(O)c(OC)c1)C2=O (centres undefined)
OUT: 0.979

IN: Return reported normalized growth; argument: COc1ccc2c(c1)OCC(Cc1ccc(OC)c(OC)c1)C2=O (centres undefined)
OUT: 0.967

IN: Return reported normalized growth; argument: COC(=O)[C@@H]1OC(=O)C2OC23[C@@]1(C)CCC1[C@]2(C)C(C[C@@H](O)[C@]13C)C(C)(C)[C@H](OC(C)=O)C[C@@H]2OC(C)=O (some centres undefined)
OUT: 0.996

IN: Return reported normalized growth; argument: CC(=O)O[C@@H]1CC2C(C)(C)[C@H](O)C=C[C@]2(C)C2CC[C@@]3(C)[C@H](c4ccoc4)OC(=O)C4OC43[C@@]21C (some centres undefined)
OUT: 1.02

IN: Return reported normalized growth; argument: CCCCC(=O)O[C@]1(C(=O)CO)CCC2C3CCC4=CC(=O)CC[C@]4(C)C3[C@@H](O)C[C@@]21C (some centres undefined)
OUT: 0.985

IN: Return reported normalized growth; argument: COc1ccc(CCC(=O)c2c(O)cc(O[C@@H]3O[C@H](CO)C(O)[C@H](O)C3O[C@@H]3O[C@@H](C)[C@H](O)[C@@H](O)[C@H]3O)cc2O)cc1O (some centres undefined)
OUT: 1.02
